target: Nitric oxide synthase, endothelial [1-973,Y477A] (Bos taurus, UniProt P29473, Y477A); construct: 1-973; experiment: Spectral Binding Assay; conditions: pH 7.5; 25 °C
Sequence (P29473 1-973 Y477A): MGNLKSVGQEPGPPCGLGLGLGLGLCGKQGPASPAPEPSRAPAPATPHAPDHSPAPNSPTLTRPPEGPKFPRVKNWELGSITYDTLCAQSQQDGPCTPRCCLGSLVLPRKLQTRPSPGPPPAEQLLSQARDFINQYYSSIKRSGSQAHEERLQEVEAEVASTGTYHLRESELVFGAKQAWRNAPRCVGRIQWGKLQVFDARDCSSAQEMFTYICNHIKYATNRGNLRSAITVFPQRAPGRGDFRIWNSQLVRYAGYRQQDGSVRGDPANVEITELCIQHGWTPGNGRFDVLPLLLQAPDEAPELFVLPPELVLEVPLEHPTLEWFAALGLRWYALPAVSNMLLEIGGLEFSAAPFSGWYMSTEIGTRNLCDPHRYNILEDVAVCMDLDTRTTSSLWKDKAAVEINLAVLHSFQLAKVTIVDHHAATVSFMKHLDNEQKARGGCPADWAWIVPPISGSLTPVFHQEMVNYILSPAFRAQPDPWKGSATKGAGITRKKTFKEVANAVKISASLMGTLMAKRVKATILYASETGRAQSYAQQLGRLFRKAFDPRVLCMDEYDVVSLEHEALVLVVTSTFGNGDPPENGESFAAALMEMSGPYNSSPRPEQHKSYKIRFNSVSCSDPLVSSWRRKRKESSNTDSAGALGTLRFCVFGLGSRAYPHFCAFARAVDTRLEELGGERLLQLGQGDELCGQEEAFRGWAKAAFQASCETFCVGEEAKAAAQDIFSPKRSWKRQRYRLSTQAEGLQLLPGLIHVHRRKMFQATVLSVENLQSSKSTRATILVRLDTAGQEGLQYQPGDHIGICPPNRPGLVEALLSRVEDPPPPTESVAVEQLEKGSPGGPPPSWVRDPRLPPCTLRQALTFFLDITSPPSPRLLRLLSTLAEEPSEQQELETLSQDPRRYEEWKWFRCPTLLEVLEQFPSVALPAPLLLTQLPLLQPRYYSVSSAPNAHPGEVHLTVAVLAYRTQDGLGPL
measured-attribute: pKd
Remember, pKd is on a log scale: it is -log10 of the molar concentration.

Problem: Find the measured pKd: item Cc1cc(N)nc(COC[C@H]2C[C@H](COc3cc(C)cc(N)n3)CN2)c1 , target or system Nitric oxide synthase, endothelial [1-973,Y477A] (Bos taurus, UniProt P29473, Y477A).
Solution: 5.46

====

// values below are Kd; system is Nitric oxide synthase, brain (Rattus norvegicus, UniProt P29476)
Sequence (P29476 whole entry): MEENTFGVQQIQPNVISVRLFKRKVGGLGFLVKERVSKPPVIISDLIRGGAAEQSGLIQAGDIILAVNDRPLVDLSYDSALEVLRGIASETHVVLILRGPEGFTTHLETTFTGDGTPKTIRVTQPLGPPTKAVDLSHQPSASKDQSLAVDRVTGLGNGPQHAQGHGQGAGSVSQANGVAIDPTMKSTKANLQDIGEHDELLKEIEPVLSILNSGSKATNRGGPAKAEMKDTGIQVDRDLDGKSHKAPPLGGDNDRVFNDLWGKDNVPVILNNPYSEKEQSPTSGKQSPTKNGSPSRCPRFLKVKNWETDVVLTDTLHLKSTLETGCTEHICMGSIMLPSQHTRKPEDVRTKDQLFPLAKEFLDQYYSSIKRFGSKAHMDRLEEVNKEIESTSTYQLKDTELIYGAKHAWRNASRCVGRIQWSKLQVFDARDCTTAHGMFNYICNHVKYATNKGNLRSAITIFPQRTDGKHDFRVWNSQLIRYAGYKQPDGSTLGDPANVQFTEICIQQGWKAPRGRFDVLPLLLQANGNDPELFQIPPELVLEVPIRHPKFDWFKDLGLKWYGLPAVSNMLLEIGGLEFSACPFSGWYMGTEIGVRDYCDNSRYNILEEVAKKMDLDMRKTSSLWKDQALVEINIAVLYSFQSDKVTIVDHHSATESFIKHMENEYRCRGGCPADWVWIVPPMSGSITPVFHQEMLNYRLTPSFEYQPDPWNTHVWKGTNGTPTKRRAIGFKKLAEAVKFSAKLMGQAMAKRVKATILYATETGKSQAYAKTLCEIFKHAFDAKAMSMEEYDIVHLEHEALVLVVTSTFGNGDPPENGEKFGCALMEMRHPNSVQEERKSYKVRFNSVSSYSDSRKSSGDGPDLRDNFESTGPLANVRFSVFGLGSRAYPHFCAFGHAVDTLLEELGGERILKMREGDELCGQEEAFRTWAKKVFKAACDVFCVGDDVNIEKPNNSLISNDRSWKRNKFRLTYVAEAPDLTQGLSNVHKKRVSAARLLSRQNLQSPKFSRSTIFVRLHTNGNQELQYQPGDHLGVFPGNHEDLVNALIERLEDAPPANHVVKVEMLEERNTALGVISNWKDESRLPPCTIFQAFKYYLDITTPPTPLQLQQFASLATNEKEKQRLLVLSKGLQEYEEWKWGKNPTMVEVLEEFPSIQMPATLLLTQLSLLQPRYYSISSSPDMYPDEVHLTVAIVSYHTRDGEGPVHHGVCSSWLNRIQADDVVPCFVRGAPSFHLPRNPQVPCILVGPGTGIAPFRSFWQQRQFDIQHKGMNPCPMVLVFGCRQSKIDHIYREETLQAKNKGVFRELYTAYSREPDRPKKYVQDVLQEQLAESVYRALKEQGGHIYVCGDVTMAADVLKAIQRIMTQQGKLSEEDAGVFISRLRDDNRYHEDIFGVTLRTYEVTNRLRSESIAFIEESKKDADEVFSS
Write the number in nM without appending the unit.

Problem: Entry Cc1cc(N)nc(C[C@@H]2CNC[C@@H]2OCCCCCc2ccccn2)c1 has what Kd?
Solution: 212

Problem: Continue with Cc1cc(N)nc(COC[C@H]2C[C@H](COc3cc(C)cc(N)n3)CN2)c1
Solution: 50

====

biological target: Isoform PNNOS of Nitric oxide synthase, brain (PNNOS) -973,I269V,H341L] (Rattus norvegicus, UniProt P29476, H341L/I269V); experiment: Spectral Binding Assay; conditions: pH 7.5; 25 °C
Sequence (P29476 whole entry I269V/H341L, canonical isoform): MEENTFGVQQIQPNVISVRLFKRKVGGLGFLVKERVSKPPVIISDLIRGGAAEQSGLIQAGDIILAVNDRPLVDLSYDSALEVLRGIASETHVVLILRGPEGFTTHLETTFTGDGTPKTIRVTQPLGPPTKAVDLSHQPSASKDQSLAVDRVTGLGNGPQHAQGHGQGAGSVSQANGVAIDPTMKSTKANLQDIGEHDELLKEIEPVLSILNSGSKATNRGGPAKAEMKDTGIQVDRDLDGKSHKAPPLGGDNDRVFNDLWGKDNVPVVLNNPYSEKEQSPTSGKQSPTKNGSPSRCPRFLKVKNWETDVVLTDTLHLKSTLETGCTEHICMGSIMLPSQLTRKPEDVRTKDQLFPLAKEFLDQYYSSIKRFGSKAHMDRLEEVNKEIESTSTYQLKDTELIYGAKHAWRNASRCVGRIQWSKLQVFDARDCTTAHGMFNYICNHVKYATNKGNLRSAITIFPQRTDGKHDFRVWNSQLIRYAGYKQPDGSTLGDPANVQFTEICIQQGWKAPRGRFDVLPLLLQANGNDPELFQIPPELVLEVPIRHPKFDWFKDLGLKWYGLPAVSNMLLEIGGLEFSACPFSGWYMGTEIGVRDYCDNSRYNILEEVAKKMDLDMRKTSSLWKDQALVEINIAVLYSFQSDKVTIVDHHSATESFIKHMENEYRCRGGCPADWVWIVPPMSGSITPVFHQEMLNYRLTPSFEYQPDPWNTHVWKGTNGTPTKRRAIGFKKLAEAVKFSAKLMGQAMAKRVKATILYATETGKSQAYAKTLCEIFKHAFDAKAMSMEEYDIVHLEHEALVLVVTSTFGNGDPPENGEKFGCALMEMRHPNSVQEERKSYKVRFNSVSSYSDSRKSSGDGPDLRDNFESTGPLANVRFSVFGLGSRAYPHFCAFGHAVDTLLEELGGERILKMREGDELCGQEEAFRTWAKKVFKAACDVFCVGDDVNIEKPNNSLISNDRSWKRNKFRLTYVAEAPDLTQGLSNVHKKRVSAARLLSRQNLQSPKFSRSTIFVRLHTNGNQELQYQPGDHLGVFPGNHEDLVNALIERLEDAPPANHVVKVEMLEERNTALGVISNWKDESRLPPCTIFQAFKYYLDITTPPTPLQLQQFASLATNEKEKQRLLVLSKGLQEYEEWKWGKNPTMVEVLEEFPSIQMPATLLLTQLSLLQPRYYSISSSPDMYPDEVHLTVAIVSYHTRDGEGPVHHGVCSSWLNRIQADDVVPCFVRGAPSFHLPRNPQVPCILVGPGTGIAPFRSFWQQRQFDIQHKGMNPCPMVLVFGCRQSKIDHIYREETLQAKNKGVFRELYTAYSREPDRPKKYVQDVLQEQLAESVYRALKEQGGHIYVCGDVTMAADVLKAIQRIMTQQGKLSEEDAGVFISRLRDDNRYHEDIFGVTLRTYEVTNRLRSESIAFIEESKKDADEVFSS
measured-attribute: pKd
# reply with the number alone; pKd is -log10 of concentration in mol/L

Problem: Would you mind telling me what pKd value was observed for Cc1cc(N)nc(COC[C@H]2C[C@H](COc3cc(C)cc(N)n3)CN2)c1 ?
Solution: 6.45

====

target: Isoform PNNOS of Nitric oxide synthase, brain (PNNOS) -973,I269V,M336V,D597N] (Rattus norvegicus, UniProt P29476, D597N/I269V/M336V); assay: Spectral Binding Assay; conditions: pH 7.5; 25 °C
Sequence (P29476 whole entry I269V/M336V/D597N, canonical isoform): as the sequence (P29476 whole entry I269V/H341L, canonical isoform) above, with M336V, L341H, D597N counted along it
measured-attribute: pKd
Quick note: pKd means taking -log10 of the concentration in moles per liter.

Problem: GET /values?readout=pKd&item= Cc1cc(N)nc(COC[C@H]2C[C@H](COc3cc(C)cc(N)n3)CN2)c1
Solution: 6.82
